Test system: MDA-MB-468
protocol_summary: phospho-S6 immunofluorescence (DAPI-normalised), per-plate z-score; higher = higher phospho-S6 signal (less pathway suppression)
condition_set: co-treatment: GDC0941 450 nM; 24 h
reported_endpoint: phospho-S6 immunofluorescence (z-score)

compound	observed_value
CCC/N=C1\S/C(=C\c2ccc(OC[C@H](O)CO)c(Cl)c2)C(=O)N1c1ccccc1C [Ponesimod] (compound 10 µM)	-0.8

stdin: May I ask what phospho-S6 immunofluorescence (z-score) has been recorded for O=c1ccc2ccc(OCCCCN3CCN(c4cccc5sccc45)CC3)cc2[nH]1 [Brexpiprazole] (compound 10 µM) ?
stdout: -5.22

stdin: phospho-S6 immunofluorescence (z-score) for C[C@@H]1C[C@H]2[C@@H]3CCC4=CC(=O)C=C[C@]4(C)[C@@]3(Cl)[C@@H](O)C[C@]2(C)[C@@]1(OC(=O)c1ccco1)C(=O)CCl [Mometasone furoate] (compound 10 µM) ?
stdout: -0.46

* * *

Attribute: phospho-S6 immunofluorescence (z-score)
Tested on: MDA-MB-468
protocol_summary: phospho-S6 immunofluorescence (DAPI-normalised), per-plate z-score; higher = higher phospho-S6 signal (less pathway suppression)
condition_set: co-treatment: GDC0941 450 nM; 24 h
Answer using only a numeral; do not append any unit.

Sample records with phospho-S6 immunofluorescence (z-score):
compound	observed_value
COc1cc(/C=C/C(=O)NCCn2c(C(F)(F)F)cc3ccccc32)cc(OC)c1OC (compound 10 µM)	-3.69
CC(C)OC(=O)N1CCC(Oc2ncnc3c2cnn3-c2ccc(S(C)(=O)=O)cc2F)CC1 (compound 10 µM)	-0.32
CC(N)(C(=O)O)c1ccc(C(=O)O)cc1 (racemic) (compound 10 µM)	0.62
Cc1ccc(C)c(OCCn2cc(C(=O)O)c3ccccc32)c1 (compound 10 µM)	0.61

stdin: # get_value(readout='phospho-S6 immunofluorescence (z-score)', item= CC[N+](CC)(CC)CCOc1cccc(OCC[N+](CC)(CC)CC)c1OCC[N+](CC)(CC)CC [Gallamine Triethiodide] (compound 10 µM) )
stdout: 0.5

stdin: # lookup: phospho-S6 immunofluorescence (z-score) of Fc1ccc(-c2cncc(CN3CCN(c4cccc5c4OCCO5)CC3)c2)cc1 [Adoprazine] (compound 10 µM)
stdout: -2.84

stdin: Name the reported phospho-S6 immunofluorescence (z-score) value associated with the compound COc1ccc(CNC(=O)c2cc(-c3cncc(C)c3)ncc2-c2nccs2)nc1OC (compound 10 µM)
stdout: -0.61

* * *

Test system: MDA-MB-468
protocol_summary: phospho-S6 immunofluorescence (DAPI-normalised), per-plate z-score; higher = higher phospho-S6 signal (less pathway suppression)
condition_set: co-treatment: lapatinib 1 uM; 24 h
Structures can show the parent of a compound that is named as a salt.
List of phospho-S6 immunofluorescence (z-score) values.
Output: the number by itself.

Observe how each entry below is paired with its result.
molecule	observed_value
C[C@H]1CN(C[C@H](Cc2ccccc2)C(=O)NCC(=O)O)CC[C@@]1(C)c1cccc(O)c1 [Alvimopan (dihydrate)] (compound 10 µM)	0.49
Cc1cc(Cn2cnc3c2CC(C(=O)O)N(C(=O)C(c2ccccc2)c2ccccc2)C3)ccc1N(C)C (configuration not stated) (compound 10 µM)	0.17
COc1cc(N)cn[n+]1-c1ccccc1 [Amezinium (methylsulfate)] (compound 10 µM)	1.19
C[C@@H]1C[C@H]2[C@@H]3CCC4=CC(=O)C=C[C@]4(C)[C@@]3(F)[C@@H](O)C[C@]2(C)[C@@]1(O)C(=O)CO [Dexamethasone] (compound 10 µM)	0.34
CSc1ccc2c(c1)N(CCC1CCCCN1C)c1ccccc1S2 (configuration not stated) [Thioridazine (hydrochloride)] (compound 10 µM)	-8.27

stdin: I am curious: what phospho-S6 immunofluorescence (z-score) value has been reported for CN1C2CCCC1CC(NC(=O)c1nn(C)c3ccccc13)C2 (configuration not stated) [Granisetron (Hydrochloride)] (compound 10 µM) ?
stdout: 0.62

stdin: I'd like to know its phospho-S6 immunofluorescence (z-score). The molecule in question is Nc1nccc(/C=C/c2ccccc2)n1 (compound 10 µM)
stdout: -0.81

* * *

Test system: MDA-MB-468
protocol_summary: phospho-S6 immunofluorescence (DAPI-normalised), per-plate z-score; higher = higher phospho-S6 signal (less pathway suppression)
condition_set: co-treatment: lapatinib 1 uM; 24 h
Counter-ions that a name gives are not always drawn.
The entries below come with measured phospho-S6 immunofluorescence (z-score) values attached.
Lab note: record the figure alone, no unit after it.

Worked cases, phospho-S6 immunofluorescence (z-score) given:
compound	observed_value
CCCNS(=O)(=O)Nc1ncnc(OCCOc2ncc(Br)cn2)c1-c1ccc(Br)cc1 [Macitentan] (compound 10 µM)	0.71
NC(=O)[C@@H]1CCCC[C@@H]1C(=O)Nc1ccc(Cl)c(Cl)c1 (compound 10 µM)	-0.14
CN(C)CCC=C1c2ccccc2C=Cc2ccccc21 [Cyclobenzaprine (hydrochloride)] (compound 10 µM)	-0.8
c1ccc(CN(CC2=NCCN2)c2ccccc2)cc1 [Antazoline (hydrochloride)] (compound 10 µM)	0.23

stdin: I am curious: what phospho-S6 immunofluorescence (z-score) value has been reported for COc1cc2nc(C3CC3)nc(N3CCN(c4ccccc4OC)CC3)c2cc1OC (compound 10 µM) ?
stdout: -0.08

stdin: Item OCc1cc(C(O)CNCCCCCCOCCCCc2ccccc2)ccc1O (stereo not given) [Salmeterol (xinafoate)] (compound 10 µM) has what recorded phospho-S6 immunofluorescence (z-score)?
stdout: -2.27

stdin: Any idea what its phospho-S6 immunofluorescence (z-score) is? The compound is CCOC(=O)O[C@]1(C(=O)OCCl)CC[C@H]2[C@@H]3CCC4=CC(=O)C=C[C@]4(C)[C@H]3[C@@H](O)C[C@@]21C [Loteprednol Etabonate] (compound 10 µM)
stdout: 0.31

* * *

Test system: MDA-MB-468
protocol_summary: phospho-S6 immunofluorescence (DAPI-normalised), per-plate z-score; higher = higher phospho-S6 signal (less pathway suppression)
condition_set: co-treatment: GDC0941 450 nM; 24 h
Structures can show the parent of a compound that is named as a salt.
List of phospho-S6 immunofluorescence (z-score) values.
Just the number.

compound	target_desc	phospho-S6 immunofluorescence (z-score)
Clc1ccc2nsnc2c1NC1=NCCN1 [Tizanidine (hydrochloride)] (compound 10 µM)	MDA-MB-468	1.42
CN1CCC(=C2c3ccccc3CC(=O)c3sccc32)CC1 [Ketotifen (fumarate)] (compound 10 µM)	MDA-MB-468	0.55
c1cnc(NCc2ccc(CNc3ncccn3)cc2)nc1 (compound 10 µM)	MDA-MB-468	-0.12

stdin: Given the compound CCNC(=O)[C@H]1O[C@@H](n2cnc3c(N)nc(NCCc4ccc(CCC(=O)O)cc4)nc32)[C@H](O)[C@@H]1O (compound 10 µM) , what is its reported phospho-S6 immunofluorescence (z-score)?
stdout: 0.05

* * *

Tested on: MDA-MB-468
protocol_summary: phospho-S6 immunofluorescence (DAPI-normalised), per-plate z-score; higher = higher phospho-S6 signal (less pathway suppression)
condition_set: co-treatment: GDC0941 450 nM; 24 h
Counter-ions that a name gives are not always drawn.
Listing: phospho-S6 immunofluorescence (z-score) of selected compounds
No unit in the answer, only the number.

compound	observed_value
Clc1ccccc1CN1CCc2sccc2C1 [Ticlopidine (hydrochloride)] (compound 10 µM)	-1.14

stdin: I would be grateful if you could share the reported phospho-S6 immunofluorescence (z-score) for CCc1cc(-c2noc(-c3cc(OC)nc(C4CCCC4)c3)n2)cc(C)c1OC[C@@H](O)CO [Cenerimod] (compound 10 µM) .
stdout: -3.08

stdin: Need phospho-S6 immunofluorescence (z-score) of OC(CCN1CCCCC1)(c1ccccc1)C1CCCCC1 (stereo not given) [Trihexyphenidyl (hydrochloride)] (compound 10 µM) , thanks.
stdout: -0.3

stdin: Entry under review: O=C(Nc1ccccc1)C12CC1C(=NO)c1ccccc1O2 (stereo not given) (compound 10 µM) . Reported phospho-S6 immunofluorescence (z-score)?
stdout: -0.19

stdin: So what's the measured phospho-S6 immunofluorescence (z-score) for this one? C[C@H]1CN(C[C@H](Cc2ccccc2)C(=O)NCC(=O)O)CC[C@@]1(C)c1cccc(O)c1 [Alvimopan (dihydrate)] (compound 10 µM)
stdout: -0.22

stdin: What measured phospho-S6 immunofluorescence (z-score) goes with CC(=O)OCC(=O)NCCCOc1cccc(CN2CCCCC2)c1 [Roxatidine (Acetate Hydrochloride)] (compound 10 µM) ?
stdout: 0.24

stdin: // returns reported phospho-S6 immunofluorescence (z-score) for input COc1ccc2cccc(CCNC(C)=O)c2c1 [Agomelatine] (compound 10 µM)
stdout: 0.97

* * *

Test system: MDA-MB-468
protocol_summary: phospho-S6 immunofluorescence (DAPI-normalised), per-plate z-score; higher = higher phospho-S6 signal (less pathway suppression)
condition_set: co-treatment: vehicle; 24 h
Structures can show the parent of a compound that is named as a salt.
Item-by-item account of phospho-S6 immunofluorescence (z-score)
I only need the number, thanks.

compound	phospho-S6 immunofluorescence (z-score)
CN1CCC[C@@H]1CCO[C@](C)(c1ccccc1)c1ccc(Cl)cc1 [Clemastine (fumarate)] (compound 10 µM)	1.46
CC(CN1c2ccccc2Sc2ccccc21)N(C)C (configuration not stated) [Promethazine (hydrochloride)] (compound 10 µM)	-0.84
CCc1cc(/C(C)=N/OCc2ccc(C3CCCCC3)c(C(F)(F)F)c2)ccc1CN1CC(C(=O)O)C1 [Siponimod] (compound 10 µM)	0.15
O=c1ccc2ccc(OCCCCN3CCN(c4cccc5sccc45)CC3)cc2[nH]1 [Brexpiprazole] (compound 10 µM)	-4.57

stdin: Given the compound CNCC(O)c1ccc(O)c(O)c1 [L-Epinephrine] (compound 10 µM) , what is its reported phospho-S6 immunofluorescence (z-score)?
stdout: -0.3

stdin: Requested read-out: phospho-S6 immunofluorescence (z-score). Entry: OCC1OC(n2cnc3c(NC4CCCCC4)ncnc32)C(O)C1O (configuration not stated) [N6-Cyclohexyladenosine] (compound 10 µM)
stdout: 0.6

stdin: Which phospho-S6 immunofluorescence (z-score) is listed for CCCCc1ncc(/C=C(\Cc2cccs2)C(=O)O)n1Cc1ccc(C(=O)O)cc1 [Eprosartan (mesylate)] (compound 10 µM) ?
stdout: 0.01
